- experimental-system: human RIP1 kinase domain (2-375) (Homo sapiens (Human), UniProt Q13546)
- Sequence (Q13546 2-375): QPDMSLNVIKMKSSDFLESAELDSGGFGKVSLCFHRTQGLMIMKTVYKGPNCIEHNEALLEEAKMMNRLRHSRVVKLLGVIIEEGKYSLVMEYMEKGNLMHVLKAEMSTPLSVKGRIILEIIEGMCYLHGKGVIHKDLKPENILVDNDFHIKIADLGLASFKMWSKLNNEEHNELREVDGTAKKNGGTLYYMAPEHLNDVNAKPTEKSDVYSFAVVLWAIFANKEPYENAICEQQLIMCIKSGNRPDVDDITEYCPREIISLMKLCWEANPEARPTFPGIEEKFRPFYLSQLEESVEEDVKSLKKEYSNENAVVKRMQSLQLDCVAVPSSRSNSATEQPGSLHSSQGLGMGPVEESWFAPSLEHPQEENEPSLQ
- assay-name: biochemical
- Type: biochemical
- settings: human RIP1 kinase domain (2-375), Transcreener ADP assay, 50 uM ATP, 2 hours incubation; read-out: RIP1 Ki
readout: log10 of Ki (log10 of the value in nM)
// do not treat as linear: log10 of Ki, unit nM

// worked examples, log10 of Ki included
• Cc1cc2n(n1)CCC(NC(=O)c1ncn(Cc3ccc(F)cc3)n1)C(=O)N2C (centres unmarked) [Example 268] = 1.99
• CN1C(=O)[C@@H](NC(=O)c2nnc(Cc3ccc(F)cc3)[nH]2)CCn2nc(C3CC3)cc21 [Example 332] = 1.94
• CC[C@@]1(C)OCc2cnc(C(=O)N[C@H]3CCn4nc(C)c(C)c4N(C)C3=O)cc21 [Example 276] = 1.97
• Cc1cc2n(n1)CCC(NC(=O)c1ncn(CC3CC(F)(F)C3)n1)C(=O)N2C (centres unmarked) [Example 248] = 3.04
• CC[C@@]1(C)OCc2cnc(C(=O)N[C@H]3COc4cc(F)cc(F)c4NC3=O)cc21 [Example 244] = 1.57

Q: Requested read-out log10 of Ki, target or system human RIP1 kinase domain (2-375) (Homo sapiens (Human), UniProt Q13546), entry Cc1cc2n(n1)CC[C@H](NC(=O)c1cc3c(cn1)COC3(C)C1CC1)C(=O)N2C (some centres unmarked) [Example 287]
Result: 3.15

Q: Form field - read-out: log10 of Ki; system: human RIP1 kinase domain (2-375) (Homo sapiens (Human), UniProt Q13546); submitted item: CN1C(=O)[C@@H](NC(=O)c2ncn(Cc3ccccc3)n2)CCn2cncc21 [Example 297]
Result: 1.32

Q: Query log10 of Ki on human RIP1 kinase domain (2-375) (Homo sapiens (Human), UniProt Q13546) for CN1C(=O)C(NC(=O)c2ncn(Cc3ccccc3)n2)CCn2nc(C3CCOCC3)cc21 (centres unmarked) [Example 234]
Result: 2.30

* * *

- experimental-system: human RIP1 kinase domain (2-375) (Homo sapiens (Human), UniProt Q13546)
- assay-name: biochemical
- Type: biochemical
- settings: tight-binding apparent inhibition constant; human RIP1 kinase domain (2-375) 50 nM, 50 uM ATP, 2 hours; read-out: Ki
pKi: −log10 of the molar value.
Could you label it rule met if measured pKi is 7 or higher, and rule not met otherwise?

- CCCC1(C)OCc2cnc(C(=O)N[C@H]3CCn4nccc4N(C)C3=O)nc21 (stereo partly shown): rule not met

Q: Please check the record CN1C(=O)[C@@H](NC(=O)c2nc3n(n2)CCO[C@H]3c2ccccc2)COc2ccccc21 [Example 516] and state if its pKi is at or above 7.
Result: rule met

Q: Does the compound CC(C)n1ncc2cnc(C(=O)N[C@H]3COc4cc(F)cc(F)c4NC3=O)nc21 have recorded pKi that is 7 or more?
Result: rule met

Q: Evaluate Cc1cc(F)c2c(c1)OC[C@H](NC(=O)c1nc3n(n1)[C@H](C(F)(F)F)CCC3)C(=O)N2 (single isomer, unassigned) : pKi at minimum 7?
Result: rule met

Q: In plain terms: is recorded pKi at least 7 for CC(C)c1cc2n(n1)CCC(NC(=O)c1ncn(Cc3ccccc3)n1)C(=O)N2C (stereo not shown) ?
Result: rule met

Data credit: patent US10988459B2
